System: FaDu
protocol-summary: Cytotoxicity against human FADU cells after 96 hrs by sulforhodamine B assay
Assay type: functional, cell-based
Kindly state IC50 for each of the entries shown.
Give your result in µmol as a bare value.

Quick check: IC50 on FaDu, item "COC(=O)[C@@]1(C)CC[C@]2(C)CC[C@]3(C)C(=CC(=O)[C@@H]4[C@@]5(C)CC[C@H](OC(=O)CNCCCCN)C(C)(C)[C@@H]5CC[C@]43C)[C@@H]2C1" ?
3.51

Quick check: IC50 on FaDu, item "COC(=O)[C@@]1(C)CC[C@]2(C)CC[C@]3(C)C(=CC(=O)[C@@H]4[C@@]5(C)CC[C@H](OC(=O)CNCCCCCCCCN)C(C)(C)[C@@H]5CC[C@]43C)[C@@H]2C1" ?
4.26

Quick check: IC50 on FaDu, item "CC1(C)[C@@H](O)CC[C@]2(C)[C@H]3C(=O)C=C4[C@@H]5C[C@@](C)(C(=O)O)CC[C@]5(C)CC[C@@]4(C)[C@]3(C)CC[C@@H]12" ?
84.55

Quick check: IC50 on FaDu, item "COC(=O)[C@@]1(C)CC[C@]2(C)CC[C@]3(C)C(=CC(=O)[C@@H]4[C@@]5(C)CC[C@H](OC(=O)CNCCCCCN)C(C)(C)[C@@H]5CC[C@]43C)[C@@H]2C1" ?
3.3

Quick check: IC50 on FaDu, item "COC(=O)[C@@]1(C)CC[C@]2(C)CC[C@]3(C)C(=CC(=O)[C@@H]4[C@@]5(C)CC[C@H](OC(=O)CNCCCCCCN)C(C)(C)[C@@H]5CC[C@]43C)[C@@H]2C1" ?
1.78

====

Tested on: FaDu
protocol-summary: Cytotoxicity against human FADU cells after 96 hrs by sulforhodamine B assay
Format: functional, cell-based
quantity: log10 of IC50 (log10 of the value in µmol)
Short version: log10 scale, IC50, µmol.

Consider the molecule "COC(=O)[C@@]1(C)CC[C@]2(C)CC[C@]3(C)C(=CC(=O)[C@@H]4[C@@]5(C)CC[C@H](OC(=O)CNCCCCCCCN)C(C)(C)[C@@H]5CC[C@]43C)[C@@H]2C1" and give its measured log10 of IC50.
0.34

Consider the molecule "COC(=O)[C@@]1(C)CC[C@]2(C)CC[C@]3(C)C(=CC(=O)[C@@H]4[C@@]5(C)CC[C@H](O)C(C)(C)[C@@H]5CC[C@]43C)[C@@H]2C1" and give its measured log10 of IC50.
1.37

Consider the molecule "COC(=O)[C@@]1(C)CC[C@]2(C)CC[C@]3(C)C(=CC(=O)[C@@H]4[C@@]5(C)CC[C@H](OC(=O)CCl)C(C)(C)[C@@H]5CC[C@]43C)[C@@H]2C1" and give its measured log10 of IC50.
1.09

Consider the molecule "COC(=O)[C@@]1(C)CC[C@]2(C)CC[C@]3(C)C(=CC(=O)[C@@H]4[C@@]5(C)CC[C@H](OC(=O)CNCCCN)C(C)(C)[C@@H]5CC[C@]43C)[C@@H]2C1" and give its measured log10 of IC50.
0.75

Consider the molecule "COC(=O)[C@@]1(C)CC[C@]2(C)CC[C@]3(C)C(=CC(=O)[C@@H]4[C@@]5(C)CC[C@H](OC(=O)CNCCCCCCCCCN)C(C)(C)[C@@H]5CC[C@]43C)[C@@H]2C1" and give its measured log10 of IC50.
0.74

Consider the molecule "COC(=O)[C@@]1(C)CC[C@]2(C)CC[C@]3(C)C(=CC(=O)[C@@H]4[C@@]5(C)CC[C@H](OC(=O)CNCCCCCCCCCCN)C(C)(C)[C@@H]5CC[C@]43C)[C@@H]2C1" and give its measured log10 of IC50.
0.75

Consider the molecule "CC1(C)[C@@H](OC(=O)CCl)CC[C@]2(C)[C@H]3C(=O)C=C4[C@@H]5C[C@@](C)(C(=O)O)CC[C@]5(C)CC[C@@]4(C)[C@]3(C)CC[C@@H]12" and give its measured log10 of IC50.
1.37

====

protocol-summary: Cytotoxicity against human A253 cells after 96 hrs by sulforhodamine B assay
Type: functional, cell-based
quantity: IC50

Consider the compound "COC(=O)[C@@]1(C)CC[C@]2(C)CC[C@]3(C)C(=CC(=O)[C@@H]4[C@@]5(C)CC[C@H](OC(=O)CCl)C(C)(C)[C@@H]5CC[C@]43C)[C@@H]2C1" and give its measured IC50.
6.19 µmol

Consider the compound "COC(=O)[C@@]1(C)CC[C@]2(C)CC[C@]3(C)C(=CC(=O)[C@@H]4[C@@]5(C)CC[C@H](OC(=O)CNCCCCCCCCCCN)C(C)(C)[C@@H]5CC[C@]43C)[C@@H]2C1" and give its measured IC50.
5.48 µmol

Consider the compound "COC(=O)[C@@]1(C)CC[C@]2(C)CC[C@]3(C)C(=CC(=O)[C@@H]4[C@@]5(C)CC[C@H](OC(=O)CNCCCCN)C(C)(C)[C@@H]5CC[C@]43C)[C@@H]2C1" and give its measured IC50.
2.56 µmol

Consider the compound "COC(=O)[C@@]1(C)CC[C@]2(C)CC[C@]3(C)C(=CC(=O)[C@@H]4[C@@]5(C)CC[C@H](OC(=O)CNCCCCCCCCN)C(C)(C)[C@@H]5CC[C@]43C)[C@@H]2C1" and give its measured IC50.
3.01 µmol

Consider the compound "COC(=O)[C@@]1(C)CC[C@]2(C)CC[C@]3(C)C(=CC(=O)[C@@H]4[C@@]5(C)CC[C@H](OC(=O)CNCCCCCCCN)C(C)(C)[C@@H]5CC[C@]43C)[C@@H]2C1" and give its measured IC50.
1.74 µmol

====

System: 8505C
protocol-summary: Cytotoxicity against human 8505C cells after 96 hrs by sulforhodamine B assay
Assay type: functional, cell-based
Kindly state IC50 for each of the entries shown.
Give your result in µmol as a bare value.

Consider the molecule "COC(=O)[C@@]1(C)CC[C@]2(C)CC[C@]3(C)C(=CC(=O)[C@@H]4[C@@]5(C)CC[C@H](OC(=O)CNCCCCCCCCCCN)C(C)(C)[C@@H]5CC[C@]43C)[C@@H]2C1" and give its measured IC50.
7.6

Consider the molecule "COC(=O)[C@@]1(C)CC[C@]2(C)CC[C@]3(C)C(=CC(=O)[C@@H]4[C@@]5(C)CC[C@H](OC(=O)CCl)C(C)(C)[C@@H]5CC[C@]43C)[C@@H]2C1" and give its measured IC50.
15.86

Consider the molecule "COC(=O)[C@@]1(C)CC[C@]2(C)CC[C@]3(C)C(=CC(=O)[C@@H]4[C@@]5(C)CC[C@H](OC(=O)CNCCCCCCCCN)C(C)(C)[C@@H]5CC[C@]43C)[C@@H]2C1" and give its measured IC50.
3.35

====

Kindly state IC50 for each of the entries shown.
System: MCF7
protocol-summary: Cytotoxicity against human MCF7 cells after 96 hrs by sulforhodamine B assay
Type: functional, cell-based
Give your result in µmol as a bare value.

Consider the compound "COC(=O)[C@@]1(C)CC[C@]2(C)CC[C@]3(C)C(=CC(=O)[C@@H]4[C@@]5(C)CC[C@H](OC(=O)CNCCCCCN)C(C)(C)[C@@H]5CC[C@]43C)[C@@H]2C1" and give its measured IC50.
1.79

Consider the compound "CC1(C)[C@@H](OC(=O)CCl)CC[C@]2(C)[C@H]3C(=O)C=C4[C@@H]5C[C@@](C)(C(=O)O)CC[C@]5(C)CC[C@@]4(C)[C@]3(C)CC[C@@H]12" and give its measured IC50.
25.11

Consider the compound "COC(=O)[C@@]1(C)CC[C@]2(C)CC[C@]3(C)C(=CC(=O)[C@@H]4[C@@]5(C)CC[C@H](OC(=O)CNCCCN)C(C)(C)[C@@H]5CC[C@]43C)[C@@H]2C1" and give its measured IC50.
3.55

Consider the compound "COC(=O)[C@@]1(C)CC[C@]2(C)CC[C@]3(C)C(=CC(=O)[C@@H]4[C@@]5(C)CC[C@H](OC(=O)CCl)C(C)(C)[C@@H]5CC[C@]43C)[C@@H]2C1" and give its measured IC50.
6.69

Consider the compound "COC(=O)[C@@]1(C)CC[C@]2(C)CC[C@]3(C)C(=CC(=O)[C@@H]4[C@@]5(C)CC[C@H](OC(=O)CNCCCCCCN)C(C)(C)[C@@H]5CC[C@]43C)[C@@H]2C1" and give its measured IC50.
1.17

Consider the compound "COC(=O)[C@@]1(C)CC[C@]2(C)CC[C@]3(C)C(=CC(=O)[C@@H]4[C@@]5(C)CC[C@H](OC(=O)CNCCCCCCCCN)C(C)(C)[C@@H]5CC[C@]43C)[C@@H]2C1" and give its measured IC50.
3.89

Consider the compound "COC(=O)[C@@]1(C)CC[C@]2(C)CC[C@]3(C)C(=CC(=O)[C@@H]4[C@@]5(C)CC[C@H](OC(=O)CNCCCCCCCCCCN)C(C)(C)[C@@H]5CC[C@]43C)[C@@H]2C1" and give its measured IC50.
2.68

Consider the compound "COC(=O)[C@@]1(C)CC[C@]2(C)CC[C@]3(C)C(=CC(=O)[C@@H]4[C@@]5(C)CC[C@H](OC(=O)CNCCCCCCCCCN)C(C)(C)[C@@H]5CC[C@]43C)[C@@H]2C1" and give its measured IC50.
3.33

Consider the compound "COC(=O)[C@@]1(C)CC[C@]2(C)CC[C@]3(C)C(=CC(=O)[C@@H]4[C@@]5(C)CC[C@H](O)C(C)(C)[C@@H]5CC[C@]43C)[C@@H]2C1" and give its measured IC50.
22.14
